Taken from PubChem BioAssay (NCATS).

System: PAD
Assay: qHTS profiling for inhibitors of Plasmodium falciparum proliferation (AID 504749); also: nearly all actives have a fitted effect of over 60% in size
Details: P. falciparum in erythrocytes, SYBR Green DNA, 72 h; series mostly up to 28.7 µM
Results filed as inconclusive are left out. Active and inactive are the calls of the source. Calls follow the shape of the dose curve; as a rule, active = well fitted inhibition curve with a large enough effect; inconclusive = small, poorly fitted or top-dose-only effect; inactive = flat fitted curve, though single readings scatter.
Please state which outcome applies, choosing from YES for active, NO for inactive

Q. What outcome does the record of this test show for CC(C)NCC(O)c1ccc(N)c(C#N)c1 (configuration not stated) ?
A. NO

Q. What outcome does the record of this test show for `O=C(O)c1nn(Cc2ccc(Cl)cc2Cl)c2ccccc12` ?
A. NO

Q. What outcome does the record of this test show for `C[C@]12Cc3nonc3C[C@@H]1CC[C@@H]1[C@@H]2CC[C@@]2(C)[C@H]1CC[C@]2(C)O` ?
A. NO

Q. What outcome does the record of this test show for `CC(C)(O)C(Cl)(Cl)Cl` ?
A. YES

Q. What outcome does the record of this test show for `CCCCCCCCCCCC[N+](C)(C)CCOc1ccccc1` ?
A. YES

Q. What outcome does the record of this test show for `C[C@]12CC[C@H]3[C@@H](CC=C4C[C@@H](O)CC[C@@]43C)[C@@H]1CC[C@@H]2O` ?
A. NO

Q. What outcome does the record of this test show for `C[C@H]1C(=O)O[C@@H]2CCN3CC=C(COC(=O)[C@](C)(O)[C@]1(C)O)[C@H]23` ?
A. NO

* * *

Conditions: Ebola virus entry assay, green fluorescence channel
Results with a measured potency or affinity are listed apart.
Class membership depends on efficacy alone; the intervals are group A = under 10%, group B = from 10% up to 60%, group C = 60% and over

Q. Any idea which band `CN1CCC(Nc2ncc3ncnc(Nc4ccc(F)c(Cl)c4)c3n2)CC1` is in?
A. group C

Q. Any idea which band `CCCNC(C)(C)COC(=O)c1ccccc1` is in?
A. group A

Q. Any idea which band `CCN(CC)CCOc1ccc(Cc2ccccc2)cc1` is in?
A. group C

Q. Any idea which band `C#C[C@]1(O)CC[C@H]2[C@@H]3CCc4cc(OC)ccc4[C@H]3CC[C@@]21C` is in?
A. group B

Q. Any idea which band CC(NCCC(c1ccccc1)c1ccccc1)c1ccccc1 (centres undefined) is in?
A. group A

Q. Any idea which band COc1ccc(CCN(C)CCCC(C#N)(c2cc(OC)c(OC)c(OC)c2)C(C)C)cc1OC (centres undefined) is in?
A. group C

Q. Any idea which band `c1cnc(N2CCN(Cc3ccc4c(c3)OCO4)CC2)nc1` is in?
A. group B

Q. Any idea which band `CCC(CC)(CC(=O)Nc1cccc(/C=C/c2nc(C3CCC3)cs2)c1)C(=O)O` is in?
A. group A

Q. Any idea which band CC(C)(C)C(=O)C(Oc1ccc(Cl)cc1)n1ccnc1 (centres undefined) is in?
A. group B

Q. Any idea which band `COc1ccc(-n2nc(CCC(=O)N(C)O)cc2-c2ccc(Cl)cc2)cc1` is in?
A. group C

Q. Any idea which band `O=C1O[C@H]([C@@H](O)CO)C(O)=C1O` is in?
A. group A

Q. Any idea which band `Oc1ccc(/C=C/c2cc(O)cc(O)c2)cc1` is in?
A. group B

Q. Any idea which band `C=C1c2cccc(O)c2C(O)=C2C(=O)[C@]3(O)C(O)=C(C(N)=O)C(=O)[C@@H](N(C)C)[C@@H]3[C@@H](O)[C@H]12` is in?
A. group B
